- target.desc: T1, RBFOX1 RRM (Homo sapiens, UniProt Q9NWB1 109-208)
- T1 sequence: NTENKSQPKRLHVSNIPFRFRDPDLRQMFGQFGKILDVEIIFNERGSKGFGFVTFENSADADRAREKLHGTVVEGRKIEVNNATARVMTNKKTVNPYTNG
- experiment.notes: EMSA; HiTS-Eq, 1 nM pool, 10 min; buffer printed only for the single-RNA assays: 10 mM Tris pH 7.5, 150 mM NaCl, 3.4 mM EDTA, 0.001% NP-40, 30 C
- condition.context: tags: His6 N-terminal (pET28a); label: 5' 32P
Whole data set: some 16,000 sequences, median “ka relative to ugcaugu” near 0.0091, cut for the highest 2% near 0.032. Shown is part of a subset that was picked to be rich in the highest values.
binding signal listing for selected binders.

Example entries begin here.
1. UUCUUAU (DNA:RNA) RNA: GGGAGACCGGAAUUCAGAUUGUCCUUCUUAUUUAAAUCCCGUCGUAGCCACCA DNA 1: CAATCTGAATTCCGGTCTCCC DNA 2: TGGTGGCTACGACGGGATT	0.00377 KA relative to UGCAUGU
2. UUAGAUC (DNA:RNA) RNA: GGGAGACCGGAAUUCAGAUUGUCCUUAGAUCUUAAAUCCCGUCGUAGCCACCA DNA 1: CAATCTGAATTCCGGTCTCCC DNA 2: TGGTGGCTACGACGGGATT	0.0111 KA relative to UGCAUGU
3. AUACCGG (DNA:RNA) RNA: GGGAGACCGGAAUUCAGAUUGUCCAUACCGGUUAAAUCCCGUCGUAGCCACCA DNA 1: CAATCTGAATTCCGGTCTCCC DNA 2: TGGTGGCTACGACGGGATT	0.00158 KA relative to UGCAUGU

Field: next binder
q: Quick check: binding signal of GCUGUAU (DNA:RNA) RNA: GGGAGACCGGAAUUCAGAUUGUCCGCUGUAUUUAAAUCCCGUCGUAGCCACCA DNA 1: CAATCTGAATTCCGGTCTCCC DNA 2: TGGTGGCTACGACGGGATT ?
a: 0.013 KA relative to UGCAUGU
